I'd appreciate it if you could supply PBM binding z-score values for the items below.
- Tested on: RARa:RXR (NR concentration 270 nM, RXRa partner concentration 90 nM)
- procedure-text: PBM binding z-score (relative to random genomic background probes); higher = stronger binding; sequences stand for … in GC…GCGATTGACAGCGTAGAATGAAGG
Give bare numbers.

See these solved cases before continuing.
>  <residue-sequence>
CCTTACGGGTCACTGACAGGTTATTGCATTTGGA

>  <experimental-system>
RARa:RXR (NR concentration 270 nM, RXRa partner concentration 90 nM)

>  <value-reported>
4.51

$$$$
>  <residue-sequence>
CGAACTAGGTCAAGGACAGCGAATCTCCGCACGC

>  <experimental-system>
RARa:RXR (NR concentration 270 nM, RXRa partner concentration 90 nM)

>  <value-reported>
1.9

$$$$
>  <residue-sequence>
TCTATTAGTTGAGGGGCAACCGACGAGTCCGTTT

>  <experimental-system>
RARa:RXR (NR concentration 270 nM, RXRa partner concentration 90 nM)

>  <value-reported>
0.515

$$$$
>  <residue-sequence>
CCTTACGGGTCAGTCCAGGTTATAGCATCGGAGT

>  <experimental-system>
RARa:RXR (NR concentration 270 nM, RXRa partner concentration 90 nM)

>  <value-reported>
2.69

$$$$
>  <residue-sequence>
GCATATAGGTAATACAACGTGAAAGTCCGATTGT

>  <experimental-system>
RARa:RXR (NR concentration 270 nM, RXRa partner concentration 90 nM)

>  <value-reported>
-0.549

$$$$

Below are 6 sequences. Give each one its PBM binding z-score.
1. ACAGACAGGTGATGAAGGTAACTCCGGCTATCAT
2. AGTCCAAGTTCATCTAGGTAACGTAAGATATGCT
3. TCTCAGAGGACACGAAAGGTCAGAGCTCGACATC
4. TCTCGGAGGACACGAAAGGTCAGGGCTCGACATC
5. CCTAGCAGCCCAGGGTCACTCAAGCATTTCGCTT
6. CTACCAAGGTTAACAAGGTCGTTGATTACTATTC

0.357
1.67
4.62
4.93
3.27
3.19

PBM binding z-score lookup needed for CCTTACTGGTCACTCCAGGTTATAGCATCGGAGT , thanks.
0.883

====

- Tested on: PPARg homodimer (NR concentration 180 nM)
- procedure-text: PBM binding z-score (relative to random genomic background probes); higher = stronger binding; sequences stand for … in GC…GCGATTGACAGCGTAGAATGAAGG
Would you mind classing the entries by PBM binding z-score? Ranges: Low: < 0.2; Mid: ≥ 0.2 and < 2; High: ≥ 2

>  <residue-sequence>
AATACAGTGTCACTAGGCCAGAGTAGGTACGAAT

>  <experimental-system>
PPARg homodimer (NR concentration 180 nM)

>  <category>
Low

$$$$
>  <residue-sequence>
CCGACTGGGGCATAAGGTTACCCTAAGCCAGCCC

>  <experimental-system>
PPARg homodimer (NR concentration 180 nM)

>  <category>
Low

$$$$
>  <residue-sequence>
CCTTACGGGTCACGCCAGGTTATAGCATCGGAGT

>  <experimental-system>
PPARg homodimer (NR concentration 180 nM)

>  <category>
High

$$$$

Okay, next one:
Assign a category based on measured PBM binding z-score for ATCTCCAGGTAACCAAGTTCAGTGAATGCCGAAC and give only the class name.
Mid

====

Would you kindly list PBM binding z-score for each of these sequences?
- System: PPARg DBDmut IVT, anti-PPARg (DBD mutation: PPARg1 K132A/R137A, NR concentration 270 nM)
- procedure-text: PBM binding z-score (relative to random genomic background probes); higher = stronger binding; sequences stand for … in GC…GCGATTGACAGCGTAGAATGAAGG

Worked set:
>  <residue-sequence>
CGAACTAGGTTATCCAGGACAGTGAATACATTGA

>  <experimental-system>
PPARg DBDmut IVT, anti-PPARg (DBD mutation: PPARg1 K132A/R137A, NR concentration 270 nM)

>  <PBM binding z-score>
0.666

$$$$
>  <residue-sequence>
CTCGAAAGGTCGTTTGAGGTGAGTATACGGATAA

>  <experimental-system>
PPARg DBDmut IVT, anti-PPARg (DBD mutation: PPARg1 K132A/R137A, NR concentration 270 nM)

>  <PBM binding z-score>
0.474

$$$$
>  <residue-sequence>
CAAACCAGGTCACCGGAAGGTCAAAGTCCGCATG

>  <experimental-system>
PPARg DBDmut IVT, anti-PPARg (DBD mutation: PPARg1 K132A/R137A, NR concentration 270 nM)

>  <PBM binding z-score>
1.5

$$$$
>  <residue-sequence>
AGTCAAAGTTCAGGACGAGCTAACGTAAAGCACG

>  <experimental-system>
PPARg DBDmut IVT, anti-PPARg (DBD mutation: PPARg1 K132A/R137A, NR concentration 270 nM)

>  <PBM binding z-score>
-0.197

$$$$
>  <residue-sequence>
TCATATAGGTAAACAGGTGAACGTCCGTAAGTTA

>  <experimental-system>
PPARg DBDmut IVT, anti-PPARg (DBD mutation: PPARg1 K132A/R137A, NR concentration 270 nM)

>  <PBM binding z-score>
1

$$$$
>  <residue-sequence>
AATACAGGGTCATCGTAGTCCAGAGTACGCACAG

>  <experimental-system>
PPARg DBDmut IVT, anti-PPARg (DBD mutation: PPARg1 K132A/R137A, NR concentration 270 nM)

>  <PBM binding z-score>
2.18

$$$$
>  <residue-sequence>
CCTAGTGGGTCAAGGTCACACACGCTATAGGTAC

>  <experimental-system>
PPARg DBDmut IVT, anti-PPARg (DBD mutation: PPARg1 K132A/R137A, NR concentration 270 nM)

>  <PBM binding z-score>
1.37

$$$$
>  <residue-sequence>
CATACTGGGCCACGAAAGGTCATTGATTCAGTGA

>  <experimental-system>
PPARg DBDmut IVT, anti-PPARg (DBD mutation: PPARg1 K132A/R137A, NR concentration 270 nM)

>  <PBM binding z-score>
0.862

$$$$

Report PBM binding z-score for each item below.
1. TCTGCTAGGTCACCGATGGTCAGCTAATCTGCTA
2. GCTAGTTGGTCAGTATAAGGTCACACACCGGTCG
3. ACCATTAGTTGACTTAGGGCAACCGATACGACGC
4. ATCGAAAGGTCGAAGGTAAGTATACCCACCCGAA
5. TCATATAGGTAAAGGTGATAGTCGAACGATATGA
6. ACTATTAGGTGAGACGAGGGCAACCGATAGGTTG
7. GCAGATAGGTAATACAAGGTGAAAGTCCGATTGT
8. AGTCAAAGTTCACTAGGTAACGCAAGATTCAGCT

1: 0.734; 2: 0.251; 3: -0.189; 4: 0.919; 5: 1.36; 6: 0.854; 7: 0.154; 8: 1.01

Need PBM binding z-score for each of these sequences.
1. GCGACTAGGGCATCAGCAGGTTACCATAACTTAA
2. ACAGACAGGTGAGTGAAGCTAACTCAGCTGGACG

1. -0.523
2. -1.17

// each sequence listed below needs its PBM binding z-score
1. CAAACTAGGTCACAGAGGTGAAAGTCCGTGCGTA
2. ACAGACAGGTGATGAAGGCAACTCAGGCTATCAT
3. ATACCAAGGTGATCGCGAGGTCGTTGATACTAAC
4. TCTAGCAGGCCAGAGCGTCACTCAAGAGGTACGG
5. ATCTGTAGGTAAAGTTCAGTGAAAGATCGATAGA

4.85
-1.07
0.101
-0.832
0.902

====

- Test system: LXRa:RXRa (NR concentration 270 nM, RXRa partner concentration 90 nM)
- procedure-text: PBM binding z-score (relative to random genomic background probes); higher = stronger binding; sequences stand for … in GC…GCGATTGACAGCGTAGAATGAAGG
Kindly supply the reported PBM binding z-score values for the records listed here.
Give bare numbers.

Some solved cases for reference:
>  <residue-sequence>
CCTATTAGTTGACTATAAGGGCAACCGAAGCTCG

>  <value-reported>
0.149

$$$$
>  <residue-sequence>
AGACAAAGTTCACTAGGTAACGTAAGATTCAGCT

>  <value-reported>
4.98

$$$$
>  <residue-sequence>
CAAACTAGGTCACGCAAGGTCAAAGTCGAATGAC

>  <value-reported>
7.71

$$$$
>  <residue-sequence>
ATATGTCGGTTACATCCGGGTCATTCAGGCTATG

>  <value-reported>
2.86

$$$$
>  <residue-sequence>
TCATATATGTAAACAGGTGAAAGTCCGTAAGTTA

>  <value-reported>
1.09

$$$$
>  <residue-sequence>
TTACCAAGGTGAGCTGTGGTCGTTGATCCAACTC

>  <value-reported>
-0.153

$$$$
>  <residue-sequence>
GCTGCTAGGTCACCTGATGGTCAGCTAAAGCTCG

>  <value-reported>
2.4

$$$$
>  <residue-sequence>
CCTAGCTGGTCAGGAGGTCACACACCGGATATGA

>  <value-reported>
3.73

$$$$

Report PBM binding z-score for each item below.
1. TTTCGGAGGACACGAAGGTCAGAGCTTTCCAGAG
2. TGAATGAGGTTATAAGATCAAGGAACGTTGCAAA
3. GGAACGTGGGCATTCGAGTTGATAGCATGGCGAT
4. GCGACAGGGGCAAAGCAGGTTACCATAAGGTTGG

1: 1.7; 2: 1.44; 3: -0.612; 4: 1.06
